# Target System: JAK2 (Homo sapiens, UniProt O60674)
# Sequence (O60674 whole entry): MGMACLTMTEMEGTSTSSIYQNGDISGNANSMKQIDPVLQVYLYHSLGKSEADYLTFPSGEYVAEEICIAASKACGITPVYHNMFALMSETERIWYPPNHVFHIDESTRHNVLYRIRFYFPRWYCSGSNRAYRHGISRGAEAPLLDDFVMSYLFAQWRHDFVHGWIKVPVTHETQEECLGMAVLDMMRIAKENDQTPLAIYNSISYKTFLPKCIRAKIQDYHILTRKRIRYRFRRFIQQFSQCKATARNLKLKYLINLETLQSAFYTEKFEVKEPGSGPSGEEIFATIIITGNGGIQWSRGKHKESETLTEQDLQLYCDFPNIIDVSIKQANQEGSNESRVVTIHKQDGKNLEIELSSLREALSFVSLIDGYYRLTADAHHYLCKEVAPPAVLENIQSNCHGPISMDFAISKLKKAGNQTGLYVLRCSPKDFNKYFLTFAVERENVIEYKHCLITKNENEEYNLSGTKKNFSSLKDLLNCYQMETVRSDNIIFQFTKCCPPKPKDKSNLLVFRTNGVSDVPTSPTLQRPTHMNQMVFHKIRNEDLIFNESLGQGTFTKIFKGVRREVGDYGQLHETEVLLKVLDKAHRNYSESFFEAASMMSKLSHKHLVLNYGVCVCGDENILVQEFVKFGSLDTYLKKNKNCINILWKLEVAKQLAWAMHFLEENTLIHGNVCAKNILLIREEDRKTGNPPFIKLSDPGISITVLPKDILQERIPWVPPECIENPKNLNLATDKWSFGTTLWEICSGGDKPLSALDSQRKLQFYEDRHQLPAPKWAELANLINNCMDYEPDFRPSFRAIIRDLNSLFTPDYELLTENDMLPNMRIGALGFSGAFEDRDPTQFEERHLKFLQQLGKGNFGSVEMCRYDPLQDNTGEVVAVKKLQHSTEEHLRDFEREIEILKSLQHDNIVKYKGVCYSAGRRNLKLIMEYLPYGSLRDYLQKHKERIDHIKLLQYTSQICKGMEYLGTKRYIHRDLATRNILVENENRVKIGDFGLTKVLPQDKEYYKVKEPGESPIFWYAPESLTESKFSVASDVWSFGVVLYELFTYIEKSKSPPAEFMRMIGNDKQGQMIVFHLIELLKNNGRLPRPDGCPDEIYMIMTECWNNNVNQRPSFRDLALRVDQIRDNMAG
pIC50: −log10 of the molar value.

| Compound | Target System | pIC50 |
| --- | --- | --- |
| O=C(NCCN1CCOCC1)c1noc2c1CN(c1ncnc3[nH]ccc13)CC2 | JAK2 (Homo sapiens, UniProt O60674) | < 5.70 |
| O=C(NCCN1CCC1)c1noc2c1CN(c1ncnc3[nH]ccc13)CC2 | JAK2 (Homo sapiens, UniProt O60674) | < 5.70 |
| O=C(NCCc1ccccc1)c1noc2c1CN(c1ncnc3[nH]ccc13)CC2 | JAK2 (Homo sapiens, UniProt O60674) | 6.30 to 7.00 |
| O=C(NCCCC1(O)CC1)c1noc2c1CN(c1ncnc3[nH]ccc13)CC2 | JAK2 (Homo sapiens, UniProt O60674) | 6.30 to 7.00 |
| O=C(NC1CC1C(F)(F)F)c1noc2c1CN(c1ncnc3[nH]ccc13)CC2 (stereo not drawn) | JAK2 (Homo sapiens, UniProt O60674) | 6.30 to 7.00 |
| N#Cc1cn(C(=O)NCCC(F)(F)F)c2c1CCN(c1ncnc3[nH]ccc13)C2 | JAK2 (Homo sapiens, UniProt O60674) | 6.30 to 7.00 |
| CS(=O)(=O)N1CCC(CCNC(=O)c2noc3c2CN(c2ncnc4[nH]ccc24)CC3)C1 (stereo not drawn) | JAK2 (Homo sapiens, UniProt O60674) | < 5.70 |
| O=C(NCCC(F)(F)F)c1nn(CCCCc2ccccc2)c2c1CN(c1ncnc3[nH]ccc13)CC2 | JAK2 (Homo sapiens, UniProt O60674) | < 5.70 |
| O=C(NCCC(F)(F)F)n1ccc2c1CN(c1ncnc3[nH]ccc13)CC2 | JAK2 (Homo sapiens, UniProt O60674) | 5.70 to 6.30 |

* * *

# Target System: JAK3 (Homo sapiens, UniProt P52333)
# Sequence (P52333 1-1124): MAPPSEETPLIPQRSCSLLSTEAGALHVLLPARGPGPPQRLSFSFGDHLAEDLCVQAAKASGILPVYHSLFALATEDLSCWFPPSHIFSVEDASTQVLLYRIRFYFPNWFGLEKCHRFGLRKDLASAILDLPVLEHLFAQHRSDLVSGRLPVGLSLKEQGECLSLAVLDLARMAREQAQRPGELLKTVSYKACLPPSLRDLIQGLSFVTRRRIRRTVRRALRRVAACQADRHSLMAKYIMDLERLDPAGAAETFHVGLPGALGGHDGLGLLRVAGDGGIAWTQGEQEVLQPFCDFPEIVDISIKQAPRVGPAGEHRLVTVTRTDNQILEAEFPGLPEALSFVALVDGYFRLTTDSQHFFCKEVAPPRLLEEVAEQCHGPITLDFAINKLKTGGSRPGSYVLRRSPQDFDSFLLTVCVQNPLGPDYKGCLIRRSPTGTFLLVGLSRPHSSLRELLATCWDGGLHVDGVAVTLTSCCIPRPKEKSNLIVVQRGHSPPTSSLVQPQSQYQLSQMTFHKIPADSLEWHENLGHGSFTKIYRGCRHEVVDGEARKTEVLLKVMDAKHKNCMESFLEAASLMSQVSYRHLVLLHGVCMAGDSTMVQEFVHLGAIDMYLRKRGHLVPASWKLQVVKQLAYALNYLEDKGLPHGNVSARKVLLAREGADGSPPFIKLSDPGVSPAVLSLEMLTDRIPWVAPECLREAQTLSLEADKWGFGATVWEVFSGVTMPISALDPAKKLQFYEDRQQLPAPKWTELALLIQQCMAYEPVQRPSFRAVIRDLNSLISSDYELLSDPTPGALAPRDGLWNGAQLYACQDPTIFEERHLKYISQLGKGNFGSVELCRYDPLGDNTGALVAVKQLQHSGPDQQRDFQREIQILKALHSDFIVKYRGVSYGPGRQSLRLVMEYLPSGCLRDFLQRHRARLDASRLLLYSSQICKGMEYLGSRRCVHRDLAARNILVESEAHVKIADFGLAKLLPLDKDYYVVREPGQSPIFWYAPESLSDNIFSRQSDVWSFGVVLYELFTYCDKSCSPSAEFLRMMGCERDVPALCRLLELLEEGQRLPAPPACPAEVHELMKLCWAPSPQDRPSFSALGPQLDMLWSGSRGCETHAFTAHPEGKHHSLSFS
Measured Parameter: IC50

| Compound | Recorded Value |
| --- | --- |
| Cn1cc(C(=O)NCCC(F)(F)F)c2c1CCN(c1ncnc3[nH]ccc13)C2 | < 100 nM |
| CCn1nc(C(=O)CC#N)c2c1CCN(c1ncnc3[nH]ccc13)C2 | 500 to 2000 nM |
| O=C(NCCN1CCS(=O)(=O)CC1)c1noc2c1CN(c1ncnc3[nH]ccc13)CC2 | 500 to 2000 nM |
| CNC(=O)[C@H]1C[C@H](NC(=O)c2nn(C)c3c2CN(c2ncnc4[nH]ccc24)CC3)C1 | > 2000 nM |
| O=C(NC(CO)CC(F)(F)F)c1noc2c1CN(c1ncnc3[nH]ccc13)CC2 (centres unmarked) | < 100 nM |
| O=C(NCCc1ccccc1)c1noc2c1CN(c1ncnc3[nH]ccc13)CC2 | < 100 nM |
| O=C(NCCC(F)(F)F)c1nsc2c1CN(c1ncnc3[nH]ccc13)CC2 | < 100 nM |
| N#Cc1cn(C(=O)NCCC(F)(F)F)c2c1CCN(c1ncnc3[nH]ccc13)C2 | < 100 nM |

* * *

# Target System: JAK2 (Homo sapiens, UniProt O60674)
# Construct: purchased Invitrogen PV4210
# Protocol Text: Inhibition of JAK2 kinase, LANCE Ultra TR-FRET assay
# Type: biochemical
# Condition Description: 2x ATP 24 μM, 15 min pre-incubation, 90 min reaction, 23° C.

| Molecule | Target System | IC50 |
| --- | --- | --- |
| O=C(NCCS(=O)(=O)N1CCCC1)c1noc2c1CN(c1ncnc3[nH]ccc13)CC2 | JAK2 (Homo sapiens, UniProt O60674) | 100 to 500 nM |
| CS(=O)(=O)C(CCNC(=O)c1noc2c1CN(c1ncnc3[nH]ccc13)CC2)C(F)(F)F (stereo not shown) | JAK2 (Homo sapiens, UniProt O60674) | 100 to 500 nM |
| O=C(NCCC(F)(F)F)c1nn(Cc2ccccc2)c2c1CN(c1ncnc3[nH]ccc13)CC2 | JAK2 (Homo sapiens, UniProt O60674) | 500 to 2000 nM |
| O=C(NCCC(F)(F)F)c1nn(C(=O)CCc2ccccc2)c2c1CN(c1ncnc3[nH]ccc13)CC2 | JAK2 (Homo sapiens, UniProt O60674) | 100 to 500 nM |

* * *

Record set of IC50 for target or system UniProt P23458.
Sequence (P23458 whole entry): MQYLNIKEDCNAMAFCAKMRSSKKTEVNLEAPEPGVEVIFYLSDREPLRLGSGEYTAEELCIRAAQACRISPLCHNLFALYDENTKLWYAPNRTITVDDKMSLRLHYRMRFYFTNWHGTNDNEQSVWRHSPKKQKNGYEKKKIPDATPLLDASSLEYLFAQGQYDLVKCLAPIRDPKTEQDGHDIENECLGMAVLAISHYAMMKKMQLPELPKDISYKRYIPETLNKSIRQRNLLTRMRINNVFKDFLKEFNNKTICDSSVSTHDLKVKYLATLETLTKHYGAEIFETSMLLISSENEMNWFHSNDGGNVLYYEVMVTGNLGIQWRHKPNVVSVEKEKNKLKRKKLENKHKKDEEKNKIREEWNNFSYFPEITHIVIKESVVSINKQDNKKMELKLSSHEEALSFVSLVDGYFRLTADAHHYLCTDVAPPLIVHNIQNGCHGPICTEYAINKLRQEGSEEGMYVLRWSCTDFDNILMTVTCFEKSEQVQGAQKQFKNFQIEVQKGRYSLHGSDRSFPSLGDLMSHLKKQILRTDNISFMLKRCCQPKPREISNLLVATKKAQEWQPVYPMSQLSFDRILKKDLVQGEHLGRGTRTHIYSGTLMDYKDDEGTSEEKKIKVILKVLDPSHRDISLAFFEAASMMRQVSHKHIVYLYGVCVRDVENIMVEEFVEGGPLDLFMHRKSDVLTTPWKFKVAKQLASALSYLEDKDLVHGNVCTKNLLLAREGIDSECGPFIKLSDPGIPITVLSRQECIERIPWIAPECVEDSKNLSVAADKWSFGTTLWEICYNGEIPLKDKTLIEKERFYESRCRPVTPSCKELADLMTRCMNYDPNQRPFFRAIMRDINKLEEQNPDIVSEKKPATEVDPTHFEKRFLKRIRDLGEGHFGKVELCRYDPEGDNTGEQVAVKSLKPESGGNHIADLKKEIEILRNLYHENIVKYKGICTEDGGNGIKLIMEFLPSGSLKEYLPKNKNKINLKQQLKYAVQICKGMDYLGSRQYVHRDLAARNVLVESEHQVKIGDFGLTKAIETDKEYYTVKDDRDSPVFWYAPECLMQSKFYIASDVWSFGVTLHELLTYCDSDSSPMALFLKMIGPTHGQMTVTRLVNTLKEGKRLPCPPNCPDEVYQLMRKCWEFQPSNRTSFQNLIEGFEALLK
Measured Parameter: IC50

| Molecule | Target System | Recorded Value |
| --- | --- | --- |
| O=C(NCCCC(F)(F)F)c1noc2c1CN(c1ncnc3[nH]ccc13)CC2 [Compound 154] | UniProt P23458 | 100 to 500 nM |
| O=C(NCCN1CCOCC1)c1noc2c1CN(c1ncnc3[nH]ccc13)CC2 [Compound 162] | UniProt P23458 | > 2000 nM |
| O=C(NCCC(F)(F)F)c1nn(CCc2cccnc2)c2c1CN(c1ncnc3[nH]ccc13)CC2 [Compound 106] | UniProt P23458 | > 2000 nM |
| O=C(NCC1CCC1O)c1noc2c1CN(c1ncnc3[nH]ccc13)CC2 (centres unmarked) [Compound 150] | UniProt P23458 | 100 to 500 nM |
| Cn1nc(C(=O)N[C@H]2C[C@H](C(=O)NCCC(F)(F)F)C2)c2c1CCN(c1ncnc3[nH]ccc13)C2 [Compound 124] | UniProt P23458 | 500 to 2000 nM |
| O=C(NCCC1CC(F)(F)C1)c1noc2c1CN(c1ncnc3[nH]ccc13)CC2 [Compound 148] | UniProt P23458 | 100 to 500 nM |
| O=C(NCC1CC(F)(F)C1)c1noc2c1CN(c1ncnc3[nH]ccc13)CC2 [Compound 198] | UniProt P23458 | < 100 nM |
| CCS(=O)(=O)n1nc(C(=O)NCCC(F)(F)F)c2c1CCN(c1ncnc3[nH]ccc13)C2 [Compound 102] | UniProt P23458 | 500 to 2000 nM |

* * *

# Target System: JAK3 (Homo sapiens)
# Sequence (P52333 1-1124): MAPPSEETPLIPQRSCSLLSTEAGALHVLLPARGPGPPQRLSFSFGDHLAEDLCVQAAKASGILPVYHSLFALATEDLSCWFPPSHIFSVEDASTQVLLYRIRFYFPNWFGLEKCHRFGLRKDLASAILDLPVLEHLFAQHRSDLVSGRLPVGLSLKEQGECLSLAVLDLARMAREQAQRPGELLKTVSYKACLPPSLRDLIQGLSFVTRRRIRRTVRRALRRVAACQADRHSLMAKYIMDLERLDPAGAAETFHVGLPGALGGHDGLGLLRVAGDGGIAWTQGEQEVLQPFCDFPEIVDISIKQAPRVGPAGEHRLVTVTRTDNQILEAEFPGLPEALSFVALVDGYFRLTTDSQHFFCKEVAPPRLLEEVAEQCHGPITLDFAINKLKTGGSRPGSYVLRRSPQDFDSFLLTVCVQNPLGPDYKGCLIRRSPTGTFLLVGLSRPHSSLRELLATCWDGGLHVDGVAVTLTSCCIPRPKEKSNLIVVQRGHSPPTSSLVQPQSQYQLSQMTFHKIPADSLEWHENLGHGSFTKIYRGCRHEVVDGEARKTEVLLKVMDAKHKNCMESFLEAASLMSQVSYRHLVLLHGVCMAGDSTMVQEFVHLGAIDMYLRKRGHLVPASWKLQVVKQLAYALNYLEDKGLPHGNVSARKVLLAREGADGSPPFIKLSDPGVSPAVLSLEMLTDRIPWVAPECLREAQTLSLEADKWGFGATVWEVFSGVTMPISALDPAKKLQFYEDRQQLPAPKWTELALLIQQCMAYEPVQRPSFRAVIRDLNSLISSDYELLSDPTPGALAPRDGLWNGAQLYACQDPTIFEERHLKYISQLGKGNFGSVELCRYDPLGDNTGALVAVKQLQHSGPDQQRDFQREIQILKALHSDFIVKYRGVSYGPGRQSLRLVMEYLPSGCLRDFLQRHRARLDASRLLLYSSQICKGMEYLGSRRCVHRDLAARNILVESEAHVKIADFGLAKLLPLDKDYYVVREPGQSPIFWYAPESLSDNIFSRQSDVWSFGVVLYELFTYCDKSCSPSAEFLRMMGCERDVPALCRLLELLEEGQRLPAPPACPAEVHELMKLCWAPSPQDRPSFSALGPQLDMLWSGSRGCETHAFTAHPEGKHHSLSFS
Measured Parameter: IC50

| Compound | Recorded Value |
| --- | --- |
| O=C(NCC1CC1)c1noc2c1CN(c1ncnc3[nH]ccc13)CC2 [Compound 180] | < 100 nM |
| Cn1nc(C(=O)N[C@H]2C[C@H](C(=O)NS(C)(=O)=O)C2)c2c1CCN(c1ncnc3[nH]ccc13)C2 [Compound 125] | 100 to 500 nM |
| O=C(NCC(CO)C(F)(F)F)c1noc2c1CN(c1ncnc3[nH]ccc13)CC2 (stereo not shown) [Compound 151] | < 100 nM |
| O=C(NCC(F)(F)F)c1noc2c1CN(c1ncnc3[nH]ccc13)CC2 [Compound 178] | < 100 nM |

From: patent US12286443B2
